PRNT IC50 overview
- Substrate: F protein of hMPV B virus (human metapneumovirus subtype B)
- assay: cell-based or functional assay
observable: PRNT IC50 (µg/mL)

| binder | observed |
| --- | --- |
| M1A01 (antibody, V domains shown) VH: QVQLVQSGAEVKKPGSSVKVSCWASGGTFDNAINWLRQAPGQGPEWMGRIIPLVDIVNRAPKFQDRVSFTADKSTNTVYMVLNSLTSDDTAVYYCASAFQDGWFDPWGQGTLVTVSS VL: EIVLTQSPATLSLSPGERATLSCRASQSLSRYLAWYQQKPGQAPRLLIYDASNRATGVPARFSGSGSGTDFTLTISSLEPEDFAVYYCHQRHNWITFGQGTRLEIK | 4 |
| M4A12 (antibody, V domains shown) VH: QLQESGSGPGLVKPSETLSLICNASGDSVTRNAYYWGWLRQPPGKGLEWIGIMYYSGSTFYNPSLKSRLTISVDTSKNQFSLKLRSVTAADTATYYCGEATLTTYDAFDVWGHGTMVTVSS VL: QSVLTQPPSVSAAPGQRVTISCSGGNSNIGKNYVSWYQQVPGTAPKLLIYENNKRPSGIPDRFSGSKSGTSATLGITGLQTGDEADYYCGAWDSSLNGVLFGGGTRLTVL | 0.0744 |

Numbers sourced from patent US20240327502A1.
